- test-protocol: Pharmacokinetics in female BALB/c nude mice bearing A375 xenografts, 1 day dosing (PK and PD study): plasma, tumor and brain concentrations, AUC
- Format: in vivo
- stated-conditions: mouse, plasma, po, 1 mg/kg, 1 mg/kg p.o. TID × 1 day; post 3rd dose; 36 h; read-out: Mean Concentration in Plasma ± SEM
measurement-label: concentration at 36 h (ng/mL)
Give just the number in ng/mL; leave the unit off.

Data request: Tell me concentration at 36 h reported for CCN(C)S(=O)(=O)Nc1ccc(F)c(Oc2ccc3ncn(C4CC5(CCN(C6CC7(C6)CN(c6cc8c(cc6F)c(N6CCC(=O)NC6=O)nn8C)C7)CC5)C4)c(=O)c3c2)c1C#N (stereo not shown) [Compound 141]
Data returned: 3.2

Cited source for all entries: patent US20260297060A1
